Entry source: PubChem BioAssay AID2022

Target or system Cell division control protein 42 homolog (Homo sapiens): recorded Ki listed per item.
Answer with a number only, understood to be in nM.

Query the reported Ki for Cell division control protein 42 homolog (Homo sapiens); item: N#Cc1c(-c2ccc(Cl)cc2)c(C(=O)c2ccccc2)n(S(=O)(=O)c2ccc([N+](=O)[O-])cc2)c1N
1520

* * *

TARGET SYSTEM: Cell division control protein 42 homolog (Homo sapiens) (UniProt P60953)
Sequence (P60953 whole entry, looked up): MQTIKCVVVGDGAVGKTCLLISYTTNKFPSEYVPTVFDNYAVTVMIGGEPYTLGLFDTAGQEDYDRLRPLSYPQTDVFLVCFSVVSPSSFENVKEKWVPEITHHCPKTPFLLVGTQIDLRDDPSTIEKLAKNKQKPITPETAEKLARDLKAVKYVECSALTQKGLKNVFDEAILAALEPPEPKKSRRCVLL
TEST PROTOCOL: wild-type Cdc42 GTP-binding inhibitors, SAR follow-up, biochemical, bead-based multiplex flow cytometry, additional SAR set (AID 2022)
TEST PARAMETERS: fluorescent GTP binding
Active and inactive are the calls of the source. No rule for the calls is given here.
MEASURED QUANTITY: EC50

Worked examples, 5 molecules total:
>  <SMILES>
O=C1C(c2c(O)[nH]c3c(Br)cccc23)=Nc2ccccc21

>  <RESULT>
> 30 µM (inactive)

$$$$
>  <SMILES>
O=C1C(c2c(O)[nH]c3ccccc23)=Nc2ccccc21

>  <RESULT>
> 30 µM (inactive)

$$$$
>  <SMILES>
O=Nc1c(-c2c(O)[nH]c3c(F)cccc23)[nH]c2ccccc12

>  <RESULT>
inactive

$$$$
>  <SMILES>
O=C1C(c2c(O)[nH]c3ccc(Br)cc23)=Nc2ccccc21

>  <RESULT>
> 30 µM (inactive)

$$$$
>  <SMILES>
O=Nc1c(-c2c(O)[nH]c3ccc(Br)cc23)[nH]c2ccccc12

>  <RESULT>
> 30 µM (inactive)

$$$$

So what's the measured EC50 for this one? O=Nc1c(-c2c(O)[nH]c3c(Br)cccc23)[nH]c2ccccc12
> 30 µM (inactive)

Given the entry O=C1N=c2ccccc2=C1c1[nH]c(=S)[nH]c1O , report its measured EC50.
> 30 µM (inactive)

Would you mind telling me what EC50 value was observed for O=C1N=c2ccccc2=C1c1[nH]c(=O)[nH]c1O ?
> 30 µM (inactive)

// query EC50 value for entry O=C1C(c2c(O)[nH]c3c(F)cccc23)=Nc2ccccc21
> 30 µM (inactive)

Quick one: EC50 of O=Nc1c(-c2c(O)[nH]c3ccccc23)[nH]c2ccccc12 ?
> 30 µM (inactive)

Look up EC50: O=C1C(c2c(O)[nH]c3c(Cl)cccc23)=Nc2ccccc21
inactive

Look up EC50 for this molecule: O=Nc1c(-c2c(O)[nH]c3c(Cl)cccc23)[nH]c2ccccc12
> 30 µM (inactive)

* * *

TARGET SYSTEM: UniProt P60953
pKi: −log10 of the molar value.
Tag: 1 (yes) if measured pKi is not below 6, 0 (no) if it is.

Is pKi at least 6? Consider COc1ccc(S(=O)(=O)n2c(N)c(C#N)c(-c3cncc(Br)c3)c2C(=O)c2ccccc2)cc1
0 (no)

Is reported pKi greater than or equal to 6 here: COc1ccc(-c2c(C#N)c(N)n(S(C)(=O)=O)c2C(=O)c2ccccc2)cc1Br
0 (no)

Evaluate O=Nc1c(-c2c(O)[nH]c3c(F)cccc23)[nH]c2ccccc12 : pKi at minimum 6?
0 (no)

Given the entry O=C1C(c2c(O)[nH]c3c(Cl)cccc23)=Nc2ccccc21 , answer whether its pKi meets or surpasses 6.
1 (yes)

Dear colleague, could you confirm whether CC(C)Cc1ccc([C@H](C)C(=O)O)cc1 has pKi at or above 6?
0 (no)
